Cited source for all entries: PubChem BioAssay (NCI)

- Tested on: MOLT-4 leukemia
- methodSummary: NCI-60 one-dose screen, 48 h
- appliedConditions: 10 µM
About 83,000 compounds went through this panel and 20% of them were active in at least one assay; those are over-represented in the sample as a whole. The source made the active and inactive calls. How the source made its calls: active means growth percent below 10; inactive means the rest.
The reply should name one outcome from 1.0 = active, 0.0 = inactive

// return assay outcome for Nc1ccc2c(c1)C1(CCC2)NC(=O)NC1=O (stereo not given)
0.0

// return assay outcome for CCC1(C(C)C)NC(=O)NC1=O (stereo not given)
0.0

// return assay outcome for O=C1OCC2=C1C(c1cccc(Cl)c1)c1cc3c(cc1N2CCO)OCO3 (stereo not given)
0.0

// return assay outcome for Cc1cc(N(CCCNc2ccnc3cc(Cl)ccc23)Cc2ccc3c(c2)OCO3)nc(N2CCOCC2)n1
1.0

// return assay outcome for O=C(Nc1cccc(-n2cc(-c3ccncc3)c(-c3ccc(O)c(Cl)c3)n2)c1)c1ccc(Cl)c(Cl)c1
0.0

// return assay outcome for COc1cc(-c2cc(/C=C3\C(=O)Nc4cc(Cl)ccc43)[nH]n2)cc(OC)c1OC
0.0

// return assay outcome for COc1ccc2c(c1)sc1nc(-c3ccccc3)c(-c3ccsc3)n12
0.0

// return assay outcome for CCCC#CCN(CC)CC
0.0

// return assay outcome for CC12O[C@H](C[C@@H](OC(=O)c3ccccc3)[C@H]1O)n1c3ccccc3c3c4c(c5c6ccccc6n2c5c31)C(=O)NC4=O
0.0

// return assay outcome for CN(C)c1ccc(/C=C/C=N/NC(=O)c2cc(O)c(O)c(O)c2)cc1
0.0

// return assay outcome for COc1ccc2c(c1)sc1nc(-c3ccccc3)c(-c3cccnc3)n12
0.0

// return assay outcome for CCN(CC)CCSCCCNc1c2ccc(Cl)cc2nc2ccc(OC)cc12
1.0

// return assay outcome for COC(=O)C(C(C[N+](=O)[O-])c1ccccc1)=P(c1ccccc1)(c1ccccc1)c1ccccc1 (stereo not given)
0.0

// return assay outcome for N=C(N)c1ccc(-c2ccc(-c3cccs3)s2)s1
1.0

// return assay outcome for CCOCCOCCOCCOCCOCCOCCOCCOCCOCCO (tested in a mixture with another compound)
1.0

// return assay outcome for COc1cc(/C=C/C(=O)c2ccc(Cl)cc2)ccc1OS(=O)(=O)c1ccc(C)cc1
1.0

// return assay outcome for COc1ccc(NC(=O)Cc2nc3nc4sc(C)c(C)c4c(=O)n3[nH]2)cc1
0.0

// return assay outcome for CC(=O)C1CCC2C3CC(F)C4=CC(=O)CCC4(C)C3C(O)CC12C (stereo not given)
0.0

// return assay outcome for COc1cc(Cl)cc(-c2nn(-c3cccc(NC(=O)Nc4ccc(Cl)c(C(F)(F)F)c4)c3)cc2-c2ccncc2)c1
1.0

// return assay outcome for CC(=O)[C@H]1CC[C@H]2[C@@H]3CCC4=CC(=O)C=C[C@]4(C)[C@H]3CC[C@]12C
0.0

// return assay outcome for CCCCCCCCCCCCCC[n+]1ccc(C(N)=O)cc1
1.0

// return assay outcome for O=C(Nc1cccc(-n2cc(-c3ccncc3)c(-c3cc(O)cc(Cl)c3)n2)c1)Nc1ccc(Cl)c(C(F)(F)F)c1
1.0

// return assay outcome for CC/C(=C(/c1ccc(OCCN(C)C)cc1)c1ccc(OC(=O)CCC(=O)c2c(C)[nH]c(/C=C3\N=C(c4ccc[nH]4)C=C3OC)c2C)cc1)c1ccccc1
1.0

// return assay outcome for CN(C)c1ccc(-c2cc(-c3cccc(NS(C)(=O)=O)c3)nc(N)c2C#N)cc1
0.0

// return assay outcome for O=C(Nc1nc2ccccc2s1)Nc1ccc([N+](=O)[O-])cc1Cl
0.0

// return assay outcome for CN(Cc1ccccc1)Cc1ccc([N+](=O)[O-])cc1I
0.0

// return assay outcome for COc1cccc(Cn2c(-c3nonc3N)nc3ccccc32)c1
0.0

// return assay outcome for Cc1cc2c(C)c3cc(C)c(N)cc3nc2cc1N
1.0

// return assay outcome for O=C1ON=[N+](c2ccc(Cc3ccc([N+]4=NOC(=O)C4CN4CCOCC4)cc3)cc2)C1CN1CCOCC1 (stereo not given)
0.0

// return assay outcome for C=C(C(=O)c1ccccc1)C(NC(C)(C)C)c1ccccc1 (stereo not given)
1.0

// return assay outcome for O=C(N/N=C\c1cc(Cl)ccc1[N+](=O)[O-])c1ccco1
0.0

// return assay outcome for Cc1cc(O)c(C(C)(C)C)cc1Sc1cc(C(C)(C)C)c(O)cc1C
1.0

// return assay outcome for COc1ccc(-c2cc(-c3ccc(N(C)C)cc3)c(C#N)c(N3CCCC3)n2)cc1
0.0

// return assay outcome for FC(F)(F)c1ccc2nc(-c3nc(-c4ccccc4)n4ccccc34)[nH]c2c1
0.0

// return assay outcome for CCOC(=O)N/N=C\C(C)=N\NC(=O)OCC
0.0

// return assay outcome for COc1ccc(/C(=C2/O[C@@H]([C@H]3COC(C)(C)O3)[C@H]3OC(C)(C)O[C@@H]23)c2cc(OC)c(OC)c(OC)c2)cc1O
0.0

// return assay outcome for O=C(O)CCCCSc1ncnc2nc[nH]c12
0.0

// return assay outcome for Nc1nc(Nc2ccccc2)n[nH]1
0.0

// return assay outcome for Cc1cccc(Cl)c1NC(=O)c1ccc2nc(NC(=O)NC3CCN(C)CC3)sc2c1
0.0

// return assay outcome for COc1cc(-c2nc(-c3nnc(-c4ccc(F)c(Cl)c4)o3)c3ccccn23)cc(OC)c1OC
0.0
